target: recombinant USP30 (amino acids 57-517 of the human sequence) (Homo sapiens (Human), UniProt Q70CQ3); experiment: In vitro USP30 biochemical assay (Ubiquitin-Rhodamine); conditions: read-out: USP30 IC50 μM (avg), Ubiquitin-Rhodamine substrate 25 nM, 1.5 nM recombinant USP30
Sequence (Q70CQ3 57-517): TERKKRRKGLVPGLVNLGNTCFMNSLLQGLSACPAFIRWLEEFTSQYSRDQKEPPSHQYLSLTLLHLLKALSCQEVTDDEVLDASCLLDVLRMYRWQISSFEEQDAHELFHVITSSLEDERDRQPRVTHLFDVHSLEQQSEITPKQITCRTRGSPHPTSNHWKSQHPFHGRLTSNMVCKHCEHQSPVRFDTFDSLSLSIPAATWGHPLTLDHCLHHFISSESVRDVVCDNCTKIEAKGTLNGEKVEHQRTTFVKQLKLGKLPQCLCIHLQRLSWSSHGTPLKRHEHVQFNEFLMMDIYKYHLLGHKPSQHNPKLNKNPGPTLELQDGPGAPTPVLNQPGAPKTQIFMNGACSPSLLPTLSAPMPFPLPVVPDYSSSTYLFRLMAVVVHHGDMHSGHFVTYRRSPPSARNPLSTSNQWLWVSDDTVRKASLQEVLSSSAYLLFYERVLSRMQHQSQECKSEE
RECORDED METRIC: IC50

Previously resolved entries follow.
> print(dat)
                                   compound   measured
1  CC(C)(C)NS(=O)(=O)c1ccc(NC(=O)C2Cc3ccccc3N2C(=O)c2ccc(F)cc2)cc1 (stereo not shown) [Compound I-53]    > 10 µM
2  COc1cc(NC(=O)[C@H](Cc2ccccc2)NC(=O)c2ccc(F)cc2)ccc1S(=O)(=O)N[C@@H]1CCOC1 [Compound I-183]  < 0.05 µM
3  CC(C)(NS(=O)(=O)c1ccc(NC(=O)[C@H](Cc2ccccc2)NC(=O)c2ccc(F)cc2)cc1)C(F)(F)F [Compound I-25]  < 0.05 µM
4  CN(C)S(=O)(=O)c1cccc2c(NC(=O)[C@H](Cc3ccccc3)NC(=O)C3CCCCC3)cccc12 [Compound I-127]    > 10 µM
5  CC(C)(C)NC(c1ccc(NC(=O)[C@H](Cc2ccccc2)NC(=O)c2ccc(F)cc2)cc1)C(F)(F)F (stereo partly shown) [Compound I-18]    > 10 µM

Q. Respond only with IC50 recorded for CC(C)(C)NS(=O)(=O)c1ccc(NC(=O)[C@H](Cc2ccccc2)NC(=O)c2ccc(F)cc2)cc1F [Compound I-156]
A. < 0.05 µM

Q. Respond only with IC50 recorded for Cc1cc(S(=O)(=O)NC(C)(C)C)ccc1NC(=O)[C@H](Cc1ccccc1)NC(=O)c1ccc(F)cc1 [Compound I-93]
A. < 0.05 µM

Q. Respond only with IC50 recorded for CC(C)(CF)NS(=O)(=O)c1ccc(NC(=O)[C@H](Cc2ccccc2)NC(=O)c2ccc(F)cc2)cc1 [Compound I-10]
A. < 0.05 µM

Q. Respond only with IC50 recorded for CC(C)(C)NS(=O)(=O)c1ccc(NC(=O)[C@H](Cc2ccccc2)NC(=O)c2ccc(F)cn2)cc1 [Compound I-85]
A. < 0.05 µM

Q. Respond only with IC50 recorded for O=C(NC1(C(=O)Nc2ccc(S(=O)(=O)NC34CC(C3)C4)cc2)Cc2ccccc2C1)c1ccc(F)cc1 [Compound I-102]
A. > 10 µM
